This collection of values is drawn from the nanobody polyreactivity screen of Harvey et al. (2022).

experiment_description: yeast display, Sf9 membrane polyspecificity reagent, FACS + sequencing; frameworks hold sequencing errors
property_measured: polyreactivity (PSR sort gate)

Known polyreactivity (PSR sort gate) results, listed for orientation:
{"sequence_chain": "QVQLVESGGGLVQAGGSLRLSCAASGIIFYRNTMGWYRQAPGKERELVASISRGGSTYYADSVKGRFTISRDNAKNTVYLPMNTLKPEDTAVYYCSTSGPQDYSRNFDYWGQGTQVTVSS", "polyreactivity (PSR sort gate)": "low polyreactivity"}
{"sequence_chain": "QVQLVESGGGLVQAGGSLRLSCAASGSTWIYAMGWYRQAPGKERELVAAISGSGDRTYYADSVKGRFTISRDNAKNTVYLLMNSLQPEDTAVYFCATVYYKSGKYDYWGQGTQVTVSS", "polyreactivity (PSR sort gate)": "high polyreactivity"}
{"sequence_chain": "QVQLVESGGGLVQAGGRLRLSCAASGFTFYDNAMGWYRQAPGKERELVAGINSGDSTFYAVSVKGRITISRDNAKNTVYLQMTSLKPEDTGFYYGAADWAWLQWSYDYWGQGTQVTVSS", "polyreactivity (PSR sort gate)": "low polyreactivity"}
{"sequence_chain": "QVQLVESGGGLVQAGGSLRLSCAASGIIFWGYAMGWYRQAPGKERELVAAISRGGSTYYADSVKGRFTISRDNAKNTVYLQMNSLKPEDTAVYYCAATGVRTWALDYWGQGTQVTVSS", "polyreactivity (PSR sort gate)": "high polyreactivity"}

Please give polyreactivity (PSR sort gate) for each item listed below.
1. QVQLVESGGGLVQAGGSLRLSSAASGGSFKRYVMVWYRQAPGKERELVAAITWSGGSTYYADSVKGRFTISRDNAKNTVYLQMNSLKPEDTAVYYCNVVTRWVTAAGYDYWGQGTQVTVSS
2. QVHLVESGGGLVQAGGSLRLSCAASGSTFGLKAMGWYRQAPGKEREFVASINFNDGSTYYADSVKGRFTISRDNAKNTVYLQMNSLKPEDPAVYYCAVELWWKWPFYYWGQGTQVTVSS
3. QVQLVESGGGLVQAGGSLRLSCAASGSTFAYNAMGWYRQAPGKERELVAAISGSTTRTYYADSVKGRFTISRDNAKNTVYLQMNSLKPEDTAVYYCAAGIPFRQRLRRYYYWGQGTQVTVSS
4. QVQLVESGGGLVQAGGSLRLSCAASGSTYGGYAMGWYRQAPGKETELVAAISRSGSSTYYADSVKGRFTISRDNAKNTVYLQMNSLKPEDTAVYYCAKRRPALRWIYYYWGQGTQVTVSS
5. QVQLQESGGGLVEAGGSLRLSCAASGTISYAPHMGWYRQAPGKERELVAGITIGGTTNYADSVKGRFTISRDNAKNTVYLQMISLSPGDTALYYCAAHYDQYTPFYYWGQGSQVTVSS

Response:
1. high polyreactivity
2. high polyreactivity
3. high polyreactivity
4. high polyreactivity
5. low polyreactivity

Provide reported polyreactivity (PSR sort gate) for each item, in the same order as listed.
1. QVQLVESGGGLVQAGGSLRLSCAASGYIFVSNAMGWNRQEPGKERELVAPISGSGGSTYYADSVKGRFTISRDIAKNTVYLQMNSLKPEDTAVYSCAADYATVTWRGIAYDYWGQGTQVTVSS
2. QVQLVESGGGLVQAGGSLRFSCAASGSTISSNVMGWYRQAPGKERELVAAITKTGGRTYYADSVKGRFTISRDNAKNTVYLQMNSLKPEDTAFYYCAAKSKPRGTSSDYYYWGQGTQVTVSS

Response:
low polyreactivity
high polyreactivity
